B1: FUT8 (parent)
chain: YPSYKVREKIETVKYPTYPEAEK

# Variants of: B1
# procedure summary: protein stability index of a GFP-peptide fusion (GPS, HEK-293T) (PSI 1-6); higher = more stable;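 further: lentivirally expressed fusions sorted by FACS into six bins by GFP to DsRed ratio, PSI derived from sequencing read proportions per bin multiplied by bin number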
# condition info: c terminus: native
Label 1.0 when protein stability index is at or above 4; otherwise label 0.0.

# variant, cat
rows = [
    ("Y18P", 1.0),
    ("Y1R", 1.0),
    ("E22D", 1.0),
    ("V6T", 1.0),
    ("K5M", 1.0),
    ("V13T", 1.0),
    ("P2A", 0.0),
    ("T17W", 0.0),
    ("Y15L", 1.0),
    ("T12Q", 1.0),
    ("I10E", 1.0),
    ("V6A", 1.0),
    ("Y1L", 1.0),
    ("P16S", 0.0),
    ("K23W", 0.0),
    ("K14C", 1.0),
    ("E8W", 0.0),
    ("Y18C", 1.0),
    ("R7W", 0.0),
    ("Y4V", 1.0),
    ("E8N", 1.0),
    ("E22H", 1.0),
    ("V13K", 1.0),
    ("E11V", 0.0),
    ("K5H", 1.0),
    ("S3E", 1.0),
    ("Y4Q", 1.0),
    ("E20G", 1.0),
    ("V13D", 1.0),
    ("Y18E", 1.0),
    ("E22M", 0.0),
    ("P19Q", 0.0),
    ("P16W", 0.0),
    ("E11M", 0.0),
    ("R7V", 0.0),
    ("P2S", 1.0),
    ("K14A", 1.0),
    ("P2C", 0.0),
]
